- ASSAY_SUMMARY: Stability in pooled human liver microsomes assessed as intrinsic clearance at 8 uM in presence of NADPH measured upto 60 mins by HPLC-MS analysis
- Type: ADME, Microsome
- CONDITION_INFO: 1 h
EXPERIMENTAL_ENDPOINT: CLint (µL/min/mg)
Numeric answer only, unit µL/min/mg assumed.

Query: Fill blank: measured CLint of the molecule O=C(CCc1ccc(O)c(O)c1)N1CCCN(S(=O)(=O)c2cccc3cnccc23)CC1 is ____.
Reply: 15.3
